Every entry's value here was drawn from the supplement of paper PMC6555819.

Tested on: RARb homodimer (NR concentration 270 nM)
Test Protocol: PBM binding z-score (relative to random genomic background probes); higher = stronger binding; sequences stand for … in GC…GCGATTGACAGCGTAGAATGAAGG
Label MET for high-side PBM binding z-score (at or above 3) and NOT MET for low-side PBM binding z-score (below it).

As a guide, the following entries are already answered.
>>> df
                  biopolymer_sequence  assigned_category
0  ATCGAAAGGTCGTGAGGTGAGTATTCAGAAAGGC                MET
1  GCATATAGGTAATACAAGGTGAATGTCCGATTGT            NOT MET
2  CTACAAAGGTGAACAAGGTCGTTGATTACTATTC                MET
3  CCTAGTTGGTCAGGAGGTCACCCACCGGATATGA                MET
4  ACAGACCGGTGATGAAGGTAACTCAGGCTATCAT            NOT MET

Decide: PBM binding z-score of CGTCCAGGGTCAGCAGGTCAGTGAAAGCGACGTG >= 3?
MET

* * *

Test system: LXRa:RXRa (NR concentration 270 nM, RXRa partner concentration 90 nM)
Test Protocol: PBM binding z-score (relative to random genomic background probes); higher = stronger binding; sequences stand for … in GC…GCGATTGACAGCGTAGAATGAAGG
The entries below come with measured PBM binding z-score values attached.
Give the figure only, with no unit attached.

Some solved entries appear below for comparison.
>>> df
                  biopolymer_sequence  reported_result
0  CCGACTGGGGCAAGGCTACCATAACGCACAGCCA           -0.335
1  ACTCTTAGTTGACTTAGGGCAACCGATACGACGC            0.443
2  TCGAGTAGGTTAGTCGGGGCATCCAGCCAACATA            0.187
3  TCATATATGTAAAGGTGAAAGTCGAACGATATGA             1.41

Now take the following sequence into account.
Entry TCATATAGGTAAACAGGTGATAGTCCGTAAGTTA , PBM binding z-score reported as 0.907

* * *

System: LXRa:RXRa (NR concentration 270 nM, RXRa partner concentration 90 nM)
Test Protocol: PBM binding z-score (relative to random genomic background probes); higher = stronger binding; sequences stand for … in GC…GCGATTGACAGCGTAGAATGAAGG
Endpoint Name: PBM binding z-score
Note: the reply should be a number with no unit written.

The cases that follow already have their PBM binding z-score on record.
In [3]: df
Out[3]:
                  biopolymer_sequence        endpoint_name  reported_result
0  ATACCAAGGTGATCGTGAGGGCGTTGATACTAAC  PBM binding z-score            0.233
1  TCGAGTAGGTTCGTCGGGGCATTCAGCCAACATA  PBM binding z-score             0.37

According to the records, this sequence CGTCCAAGGTCATAGGAGGTCAGGGAAGACAGAT displays PBM binding z-score of 7.63

Input GATACAGGGTCAGCTATAGGCCAGAGTATGGAAA . Output PBM binding z-score: 2.57

So for CCTATTAGTTGACCATAAGAGCAACCGAAGCTCG , the logged PBM binding z-score turned out to be 0.617

Note to self: PBM binding z-score recorded for ATCTCTAGGTAAGACTCAGTTCAGTGCAGAACGC was 0.334
